# targetOfAssay: GluA1 (Homo sapiens)
# Construct: expressed in transfected cells; host or cells: HEK293T
# Sequence (P42261 19-906 isoform P42261-2 limits assumed, species assumed): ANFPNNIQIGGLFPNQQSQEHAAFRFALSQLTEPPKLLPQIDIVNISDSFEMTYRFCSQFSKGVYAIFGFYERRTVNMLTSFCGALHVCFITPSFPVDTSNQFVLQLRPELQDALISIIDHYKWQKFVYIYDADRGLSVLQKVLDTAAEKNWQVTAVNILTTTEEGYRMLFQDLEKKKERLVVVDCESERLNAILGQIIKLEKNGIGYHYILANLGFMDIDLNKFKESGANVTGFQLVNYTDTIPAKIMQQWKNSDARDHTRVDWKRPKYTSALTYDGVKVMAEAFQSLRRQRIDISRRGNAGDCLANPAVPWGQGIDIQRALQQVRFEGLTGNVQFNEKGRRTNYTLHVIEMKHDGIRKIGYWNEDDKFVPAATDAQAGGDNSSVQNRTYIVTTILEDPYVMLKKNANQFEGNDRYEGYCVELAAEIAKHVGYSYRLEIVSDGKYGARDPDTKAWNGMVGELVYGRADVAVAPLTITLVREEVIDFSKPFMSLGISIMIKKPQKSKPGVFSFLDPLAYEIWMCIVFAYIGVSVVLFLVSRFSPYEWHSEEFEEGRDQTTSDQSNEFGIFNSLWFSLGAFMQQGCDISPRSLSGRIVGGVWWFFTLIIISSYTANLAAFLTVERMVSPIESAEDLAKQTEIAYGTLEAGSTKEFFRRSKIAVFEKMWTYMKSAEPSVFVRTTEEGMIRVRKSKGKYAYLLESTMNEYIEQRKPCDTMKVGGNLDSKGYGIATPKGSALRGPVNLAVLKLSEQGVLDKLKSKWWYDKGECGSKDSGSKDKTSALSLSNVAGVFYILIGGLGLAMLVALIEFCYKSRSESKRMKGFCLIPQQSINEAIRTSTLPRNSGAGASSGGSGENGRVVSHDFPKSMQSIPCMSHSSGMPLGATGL
# testDescription: Whole-cell patch-clamp recordings of homomeric GluA1 AMPAR in transfected HEK293T cells
# Format: cell-based
# conditionContext: GluA1; read-out: IC50
measure: pIC50
Convention used: pIC50 is expressed as -log10 of the molar concentration.

[in] What value of measured pIC50 is listed for COc1ccc(-c2nc(C(=O)Nc3cc(OC)c(OC)c(OC)c3)cs2)cc1 [TC-2] ?
[out] 5.49

---

# targetOfAssay: GluA1 (Homo sapiens)
# Construct: expressed in transfected cells; host or cells: HEK293T
# testDescription: Whole-cell patch-clamp recordings of homomeric GluA1 AMPAR in transfected HEK293T cells
# Format: cell-based
# conditionContext: GluA1; weighted tau of desensitization, 10 mM glutamate 500 ms, with TC compound; glutamate alone 2.5±0.1
measure: t des (ms)
Write down the numeric answer in ms and omit the unit.

These solved cases illustrate the format of a correct answer.
- moleculeSmiles: "COc1ccc(-c2nc(C(=O)Nc3ccc(C(C)(C)C)cc3)cs2)cc1"
  targetOfAssay: "GluA1 (Homo sapiens)"
  t des, ms: 2.1
- moleculeSmiles: "COc1ccc(-c2nc(C(=O)Nc3ccccc3)cs2)cc1"
  targetOfAssay: "GluA1 (Homo sapiens)"
  t des, ms: 2.0
- moleculeSmiles: "COc1ccc(-c2nc(C(=O)Nc3cc(OC)c(OC)c(OC)c3)cs2)cc1"
  targetOfAssay: "GluA1 (Homo sapiens)"
  t des, ms: 1.1
- moleculeSmiles: "COc1ccc(-c2nc(C(=O)Nc3ccc(OC)c(OC)c3)cs2)cc1"
  targetOfAssay: "GluA1 (Homo sapiens)"
  t des, ms: 1.3

Note: attention shifts to another entry.
[in] What value of measured t des is listed for COc1ccc(-c2nc(C(=O)Nc3cc(OC)ccc3OC)cs2)cc1 ?
[out] 1.4

---

# targetOfAssay: GluA1/2 (Homo sapiens, UniProt P42261+P42262)
# Construct: expressed in transfected cells; host or cells: HEK293T
# Sequence (P42261 19-906 isoform P42261-2 limits assumed): as the sequence (P42261 19-906 isoform P42261-2 limits assumed, species assumed) above
# Sequence (P42262 25-883 isoform P42262-2 limits assumed): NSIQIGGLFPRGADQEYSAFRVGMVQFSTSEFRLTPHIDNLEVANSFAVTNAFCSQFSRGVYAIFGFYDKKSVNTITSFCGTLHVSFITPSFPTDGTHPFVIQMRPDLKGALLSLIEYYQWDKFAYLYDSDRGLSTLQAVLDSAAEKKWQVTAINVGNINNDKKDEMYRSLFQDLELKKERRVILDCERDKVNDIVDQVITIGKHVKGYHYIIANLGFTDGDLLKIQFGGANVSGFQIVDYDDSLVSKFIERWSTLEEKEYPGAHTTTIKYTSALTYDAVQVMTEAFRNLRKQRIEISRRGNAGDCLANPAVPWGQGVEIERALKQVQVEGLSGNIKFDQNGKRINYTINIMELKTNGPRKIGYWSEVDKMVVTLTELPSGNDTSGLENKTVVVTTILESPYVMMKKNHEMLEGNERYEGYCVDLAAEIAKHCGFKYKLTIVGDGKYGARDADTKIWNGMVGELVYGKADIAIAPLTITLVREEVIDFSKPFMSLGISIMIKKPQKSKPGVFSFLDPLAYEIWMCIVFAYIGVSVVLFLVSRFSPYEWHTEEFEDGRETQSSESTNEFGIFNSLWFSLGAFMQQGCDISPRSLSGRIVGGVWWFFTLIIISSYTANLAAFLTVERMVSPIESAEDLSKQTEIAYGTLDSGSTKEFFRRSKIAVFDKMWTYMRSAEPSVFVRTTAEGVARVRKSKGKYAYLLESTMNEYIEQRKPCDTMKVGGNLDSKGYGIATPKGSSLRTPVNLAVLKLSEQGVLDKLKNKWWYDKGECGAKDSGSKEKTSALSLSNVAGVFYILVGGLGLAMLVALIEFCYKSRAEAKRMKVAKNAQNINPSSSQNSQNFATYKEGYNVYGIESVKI
# testDescription: Whole-cell patch-clamp recordings of heteromeric GluA1/2 AMPAR in transfected HEK293T cells
# Format: cell-based
# conditionContext: weighted tau of desensitization, 10 mM glutamate 500 ms, with TC compound, glutamate alone 5.2±0.5
This listing pairs compounds with measured t des.
Write down the numeric answer in ms and omit the unit.

- moleculeSmiles: "COc1ccc(-c2nc(C(=O)Nc3ccc(C(C)(C)C)cc3)cs2)cc1"
  resultUnits: "ms"
  t des: 4.4
- moleculeSmiles: "COc1ccc(-c2nc(C(=O)Nc3ccc(OC)c(OC)c3)cs2)cc1"
  resultUnits: "ms"
  t des: 3.9

[in] # query: t des | item COc1ccc(-c2nc(C(=O)Nc3cc(OC)c(OC)c(OC)c3)cs2)cc1 | system: GluA1/2 (Homo sapiens, UniProt P42261+P42262)
[out] 3.7

[in] # query: t des | item COc1ccc(-c2nc(C(=O)Nc3ccccc3)cs2)cc1 | system: GluA1/2 (Homo sapiens, UniProt P42261+P42262)
[out] 4.2

[in] # query: t des | item COc1ccc(-c2nc(C(=O)Nc3cc(OC)ccc3OC)cs2)cc1 | system: GluA1/2 (Homo sapiens, UniProt P42261+P42262)
[out] 3.8
